test system: HEK-293T; test: Multiplex assay against HEK293T; assay type: toxicity, cell-based; details: human, 12 h, 1 µM, compound concentration 1 uM, replicate 1;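 also: share of the cells with healthy nuclei that show this phenotype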
Reported Endpoint: Population Tubulin-Different-Phenotype (%)
Write the value in % as a bare number.

Can you look up the measured Population Tubulin-Different-Phenotype (%) of CCn1c(=O)c(-c2ccc(-c3cncs3)cc2Cl)cc2cnc(Nc3ccc(N4CCN(C)CC4)cc3)nc21 for me?
55

Return reported Population Tubulin-Different-Phenotype (%); argument: S=C(NCCCc1c[nH]cn1)NCCCN(Cc1ccc(Cl)c(Cl)c1)c1ccc(Br)cn1
67

Look up Population Tubulin-Different-Phenotype (%) for this molecule: Cl.O=C(c1ccc(Nc2nccc(-c3cc4ccccc4s3)n2)cc1)N1CCC(N2CCCC2)CC1
73

Which Population Tubulin-Different-Phenotype (%) value is on record for CCn1cc(-c2ccnc3[nH]c(-c4cccc(CN(C)C)c4)cc23)c(-c2ccc(NC(=O)N(C)C)cc2)n1 ?
18

What value of measured Population Tubulin-Different-Phenotype (%) is listed for CNc1cc(Oc2cc(C(=O)Nc3cc(N4CCN(C)CC4)cc(C(F)(F)F)c3)ccc2C)ncn1 ?
89

I would be grateful if you could share the reported Population Tubulin-Different-Phenotype (%) for CCc1cccc(CC)c1NC(=O)c1nn(C)c2c1CCc1cnc(Nc3ccc(N4CCN(C)CC4)cc3OC)nc1-2 .
75

// query Population Tubulin-Different-Phenotype (%) value for entry CNC(=O)c1ccc(Nc2nc(OC3CCCC3)c3c(-c4ccc5nc(C)oc5c4)c[nH]c3n2)c(OC)c1
76

So what's the measured Population Tubulin-Different-Phenotype (%) for this one? CN1C2CCC1CC(OC(c1ccc(F)cc1)c1ccc(F)cc1)C2.Cl (stereo not drawn)
58

Entry source: ChEMBL document CHEMBL4689842
